System: astro (control astrocytes)
Assay: Drug repurposing screens with cells derived from glioblastoma tumor samples (AID 1345199); further: nearly all actives have a fitted effect of over 40% in size
Conditions: viability, ATP luminescence, 48 h; series mostly up to 45.9 µM
Results filed as inconclusive are left out. The source made the active and inactive calls. The call rests on the fitted dose curve; in most records, active means well fitted inhibition curve with a large enough effect; inconclusive means small, poorly fitted or top-dose-only effect; inactive means flat fitted curve, though single readings scatter.
Outcome codes: t = active, f = inactive

# COMPOUND, ANSWER_LABEL
rows = [
    ("O=C(O)c1ccccc1S", "f"),
    ("CC(C)(C)C(=O)OCOC(=O)C1N2C(=O)CC2S(=O)(=O)C1(C)C (stereo not given)", "f"),
    ("CCCCC/C=C\\C/C=C\\CCCCCCCC(=O)NC(C)c1ccccc1 (stereo not given)", "f"),
    ("CCN1C(=O)c2ccccc2C1Nc1ccc(OCCN2CCCCC2)cc1 (stereo not given)", "f"),
    ("C=CC[N+]1([C@H]2C[C@H]3[C@@H]4CC[C@H]5C[C@H](OC(C)=O)[C@@H](N6CCCCC6)C[C@]5(C)[C@H]4CC[C@]3(C)[C@H]2OC(=O)CC)CCCCC1", "f"),
    ("Cc1nc([N+](=O)[O-])cn1-c1ccc([N+](=O)[O-])cc1", "f"),
    ("CO/N=C(/C(=O)N[C@@H]1C(=O)N2C(C(=O)[O-])=C(C[n+]3ccn4ncccc43)CS[C@H]12)c1nsc(N)n1", "f"),
    ("CC[N+](CC)(CC)CCOC(=O)C(C1CCCC1)C1CCCC1", "f"),
    ("CCCCCCCCCCCCCC[N+](C)(C)C", "t"),
    ("O=C(OCC(COC(=O)c1cccnc1)(COC(=O)c1cccnc1)COC(=O)c1cccnc1)c1cccnc1", "f"),
]

---

Assay: qHTS of pediatric cancer cell lines to identify multiple opportunities for drug repurposing: Primary screen for BT-37 cells (AID 1347094)
Settings: BT-37 viability, CellTiter-Glo luminescence, 48 h; series mostly up to 57.3 µM
Records with an inconclusive call do not appear. Calls of active or inactive are those of the source. Calls follow the shape of the dose curve; as a rule, active = well fitted cell-killing curve with a large enough effect; inconclusive = small, poorly fitted or top-dose-only effect; inactive = flat fitted curve, though single readings scatter.
Outcome codes: active, inactive

# COMPOUND, ANSWER_LABEL
data = [
    ("CC(=O)OCC[N+](C)(C)C", "inactive"),
    ("CCn1ccc(NS(=O)(=O)c2ccc(N)cc2)nc1=O", "inactive"),
    ("O=C(OCC(O)CO)c1ccccc1Nc1ccnc2c(C(F)(F)F)cccc12 (stereo not drawn)", "inactive"),
    ("O=C1CC[C@H](C(=O)N2CCCCC2)N1", "inactive"),
    ("Cc1nc([N+](=O)[O-])cn1-c1ccc([N+](=O)[O-])cc1", "inactive"),
    ("Cc1cc(OCCOCC[N+](C)(C)Cc2ccccc2)ccc1C(C)(C)CC(C)(C)C", "active"),
    ("COCCc1ccc(OCC2CO2)cc1 (stereo not drawn)", "inactive"),
    ("Brc1ccccc1-c1ccccc1", "inactive"),
    ("C[C@@]12CCC[C@H]1[C@@H]1CC[C@H]3C[C@@H](O)CC[C@]3(C)[C@H]1CC2", "inactive"),
    ("COC(=O)c1cc(Cl)ccc1OC", "inactive"),
    ("C=C(C)C(=O)OCC(O)CO (stereo not drawn)", "inactive"),
    ("CN(C)CCOC(c1ccccc1)c1ccc(Br)cc1 (stereo not drawn)", "inactive"),
    ("CCCCCCCCCCCCCCCCCCN(C)C", "inactive"),
]

---

Assay: qHTS of pediatric cancer cell lines to identify multiple opportunities for drug repurposing: Confirmatory screen for TC32 cells (AID 1347118);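 further: cells exposed to compound for 48 h before the read; nearly all actives have a fitted effect of over 65% in size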
Conditions: TC32 Ewing sarcoma cells viability qHTS; series mostly up to 45.9 µM
Records with an inconclusive call do not appear. The source made the active and inactive calls. Calls come from the whole dose curve; as a rule, active = well fitted cell-killing curve with a large enough effect; inconclusive = small, poorly fitted or top-dose-only effect; inactive = no such curve, though single readings can be large or run the other way.
Outcome codes: active, inactive

# COMPOUND, ANSWER_LABEL
data = [
    ("COc1cc(/C=C/C(N)=O)cc(OC)c1OC", "inactive"),
    ("CC(C)(C)CC(=O)OCC(=O)[C@@]1(O)CC[C@H]2[C@@H]3CCC4=CC(=O)C=C[C@]4(C)[C@H]3[C@@H](O)C[C@@]21C", "inactive"),
    ("O=c1[nH]sc2cc(Cl)ccc12", "active"),
    ("CCCC(=O)O[C@]1(C(=O)COC(=O)CC)CC[C@H]2[C@@H]3CCC4=CC(=O)CC[C@]4(C)[C@H]3[C@@H](O)C[C@@]21C", "active"),
    ("CC[C@@]1(O)C(=O)OCc2c1cc1n(c2=O)Cc2c-1nc1ccccc1c2/C=N/OC(C)(C)C", "active"),
    ("CC(=O)[C@@]1(O)CC[C@H]2[C@@H]3C[C@H](C)C4=CC(=O)CC[C@]4(C)[C@H]3CC[C@@]21C", "active"),
    ("COc1c(C)c2c(c(O)c1C/C=C(\\C)CCC(=O)OCCN1CCOCC1)C(=O)OC2", "active"),
    ("Cc1nc(N)nc(N)c1-c1ccc(Cl)c(Cl)c1", "active"),
    ("CO[C@@H]1[C@@H](OC)[C@H](C)[C@@](O)(CC(=O)O)O[C@H]1[C@H](C)[C@H]1O[C@@]2(CC[C@@](C)([C@H]3CC[C@@](C)([C@@H]4O[C@@H]([C@H]5O[C@](C)(O)[C@H](C)C[C@@H]5C)C[C@@H]4OC4C[C@H](OC)[C@@H](OC)[C@H](C)O4)O3)O2)C[C@H](O)[C@H]1C (some centres undefined)", "active"),
    ("Nc1c2ccccc2nc2ccccc12", "active"),
    ("CCC1(c2cnc[nH]2)Cc2ccccc2C1", "active"),
    ("CCCCC(=O)OCC(=O)[C@H]1[C@H](C)C[C@H]2[C@@H]3C[C@H](F)C4=CC(=O)C=C[C@]4(C)[C@@]3(F)[C@@H](O)C[C@@]21C", "active"),
    ("CCC(=O)O[C@]1(C(=O)COC)[C@@H](C)C[C@H]2[C@@H]3CCC4=CC(=O)C=C[C@]4(C)C3(F)[C@@H](O)C[C@@]21C (some centres undefined)", "inactive"),
    ("CCN(CC)CC(=O)OCC(=O)[C@@]1(O)CC[C@H]2[C@@H]3CCC4=CC(=O)CC[C@]4(C)[C@H]3[C@@H](O)C[C@@]21C", "active"),
]

---

Assay: qHTS Assay for Lipid Storage Modulators (AID 1519); further: on the % scale 0 is the no-effect control and ±100 the full control effect
Settings: Drosophila S3 cells, BODIPY lipid droplet/cell ratio, laser cytometry; at 25.7 µM (top of the series); cells loaded with oleic acid
Records with an inconclusive call do not appear.

# MOL, activity change, negative = inhibition [%]
rows = [
    ("CCOC(=O)NNc1nncc2ccccc12", 0.543),
    ("O=C(CCCCC(=O)Nc1c(I)cc(I)c(C(=O)O)c1I)Nc1c(I)cc(I)c(C(=O)O)c1I", -0.504),
    ("OC(CCCN1CCCCC1)(c1ccccc1)c1ccccc1", -0.646),
    ("Cc1ncc(CO)c(CO)c1O", -0.151),
]

---

Experiment: Drug repurposing screens with cells derived from glioblastoma tumor samples (AID 1345199); further: nearly all actives have a fitted effect of over 40% in size; on activity, negative = cell killing: on the % scale 0 is the no-effect control and ±100 the full control effect
Conditions: GBM patient neurospheres viability, ATP luminescence, 48 h; at 91.6 µM (top of the series); tumour line A
Results filed as inconclusive are left out.
activity, negative = cell killing values for the compounds below.

# COMPOUND, activity, negative = cell killing (%)
data = [
    ("Brc1ccccc1-c1ccccc1", -21.1),
    ("c1ccc2occc2c1", -19.3),
    ("CN1C(=O)c2ccccc2C1=O", -18.9),
    ("C1=CC2C3C=CC(C3)C2C1 (centres undefined)", -19.8),
]

---

Assay: qHTS of pediatric cancer cell lines to identify multiple opportunities for drug repurposing: Primary screen for TC32 cells (AID 1347089); further: nearly all actives have a fitted effect of over 60% in size
Conditions: TC32 Ewing sarcoma viability, CellTiter-Glo luminescence, 48 h; series mostly up to 45.8 µM
Method: Drug repurposing or repositioning has been offered as a strategy for drug development in oncology programs. […] [1] Shen, M et al. Quantitative high-throughput phenotypic screening of pediatric cancer cell lines identifies multiple opportunities for drug repurposing. […] Cells were assayed in growth media at a density of 500-1,000 cells/well. […] After a 15min incubation at room temperature, samples were analyzed for luminescence intensity using a ViewLux High-throughput CCD imager equipped with clear filters.
Records with an inconclusive call do not appear. The source made the active and inactive calls. The call rests on the fitted dose curve; in most records, active means well fitted cell-killing curve with a large enough effect; inconclusive means small, poorly fitted or top-dose-only effect; inactive means flat fitted curve, though single readings scatter.
Outcome codes: true (1) = active, false (0) = inactive

# COMPOUND, ANSWER_LABEL
measured = [
    ("CC1(C)S[C@@H]2[C@H](NC(=O)C(c3ccccc3)S(=O)(=O)O)C(=O)N2[C@H]1C(=O)O (stereo partly specified)", "false (0)"),
    ("CCN(CC)C(=O)C1CN2CCc3cc(OC)c(OC)cc3C2CC1OC(C)=O (stereo unspecified)", "false (0)"),
    ("COC(=O)/C=C(/C)N", "false (0)"),
    ("O=C1CC(c2ccc(Cl)cc2)CC(=O)N1", "false (0)"),
    ("c1ccc(C(O[C@H]2CCCN(CCc3ccc4c(c3)OCO4)C2)c2ccccc2)cc1", "false (0)"),
    ("CC(=O)Nc1ccn(C2COC(COC(=O)c3ccccc3)O2)c(=O)n1 (stereo unspecified)", "true (1)"),
]
